assay: in vitro; design: species or system HB2, HEK293; conditions: human, ccd841 cells
Measured Quantity: viability at 48 h, 10 µM (%)
The answer is to be given in %; state only the numeric part.

Query: viability at 48 h, 10 µM; subject: C=CC(=O)NCc1ccon1 [PCM-0102482]
92.9

// returns reported viability at 48 h, 10 µM for input CC(NC(=O)CCl)C12CC3CC(CC(C3)C1)C2 (centres unmarked) [PCM-0102402]
73.3

Look up viability at 48 h, 10 µM for this compound: Cc1n[nH]c(=O)c2c(NC(=O)CCl)oc(C)c12 [PCM-0102226]
112

Return reported viability at 48 h, 10 µM; argument: CCC1CCCCN1C(=O)CCl (centres unmarked) [PCM-0102828]
80.9

Can you share its viability at 48 h, 10 µM? I mean this compound: NC(=O)C1CCCN(C(=O)CCl)C1 (centres unmarked) [PCM-0102495]
93

Value lookup for viability at 48 h, 10 µM; key = O=C(CCl)NC(=O)c1cccc([N+](=O)[O-])c1 [PCM-0102460]
95.9

Given the compound C=CC(=O)NC1CNC(=O)C1 (centres unmarked) [PCM-0102882] , what is its reported viability at 48 h, 10 µM?
99.1

// lookup viability at 48 h, 10 µM for O=C(CCl)Nc1ccc2c(c1)OCCO2 [PCM-0102324]
63.3
